# Tested on: HCT-116 colon
# ASSAY NAME: NCI-60 one-dose screen, 48 h
# CONDITION: 10 µM unless noted
This is part of a sample that, as a whole, favours compounds with a hit. Of some 83,000 tested, about 20% had one in any assay. Calls of active or inactive are those of the source. Rule for the calls: active = growth percent below 10; inactive = the rest.
Output constraint: value belongs to yes for active, no for inactive

Below, 2 compounds whose answers are already recorded.
COMPOUND | CLASSIFICATION
CCN(CC)CCCNc1cccc2c(SCc3ccccc3)ccnc12 | no
OCC1C2C=CC(C2)C1CO (centres undefined) | no

Lookup: Tell me the recorded outcome of this test for CC(=O)C1=C(O)C=C2Oc3c(C(=O)/C=C/c4cc(Cl)cc(Cl)c4)c(O)c(C)c(O)c3[C@]2(C)C1=O .
Found: yes

Lookup: Look up the recorded call for O=C1C(Cl)=C(Cl)C(=O)c2c1nc1n2CCCC1 in this test.
Found: no

Lookup: What was the test verdict on CC1=CC(=O)CC(C)(C)[C@@]1(O)/C=C/[C@@H](C)O ?
Found: no

Lookup: Which outcome was entered for the compound O=C1c2cc3c(cc2-c2c1c1cc(Cl)c(Cl)cc1c(=O)n2CCCn1ccnc1)OCO3 in this test?
Found: yes

Lookup: Entry C=C1CC2(OC1=O)C(=O)Nc1ccccc12 (centres undefined) : call = ?
Found: no

Lookup: Each compound tested received a call. Report the one for Nc1ccc2c(c1)C(=O)NC2=O .
Found: no

Lookup: // outcome(item) with item = C=C1CC2(OC1=O)C(=O)N(CCCCCCCN1C(=O)C3(CC(=C)C(=O)O3)c3ccccc31)c1ccccc12 (centres undefined)
Found: yes

Lookup: Record lookup: outcome of this test for N#Cc1ccc(NC(=O)Nc2ccc(Cc3ccc(NC(=O)Nc4ccc(C#N)cc4)cc3)cc2)cc1 ?
Found: no

====

# Test system: ACHN renal
# ASSAY NAME: NCI-60 one-dose screen, 48 h
# CONDITION: 10 µM unless noted
The panel holds about 83,000 compounds, 20% with a hit somewhere; the sample as a whole holds those more often. The source made the active and inactive calls. How the source made its calls: active means growth percent below 10; inactive means the rest.
Select the matching outcome among active, inactive

COMPOUND | TARGET OR SYSTEM | CLASSIFICATION
Cc1ccc(N)cc1F | ACHN renal | inactive
CCN(CC)CC(O)c1cc(-c2ccc(Cl)cc2)nc2c(C)c(Cl)ccc12 (stereo not given) | ACHN renal | active
O=[N+]([O-])c1cccc(-c2nc3sccn3c2-c2ccnc(NCCCNS(=O)(=O)c3ccc(Br)cc3)n2)c1 | ACHN renal | inactive

Lookup: Kindly provide the recorded test outcome for the following compound: CC1=NNC(=O)C1C (stereo not given)
Found: inactive

Lookup: Hi, do you know how COc1ccc2nc(NC(=O)c3cccnc3Nc3cc(OC)c(OC)c(OC)c3)sc2c1 came out in this test?
Found: inactive

Lookup: Record request — test call for CC(C)[C@@H]1CC[C@]2(C(=O)NCCCCN=C(N)N)CC[C@]3(C)[C@H](CC[C@@H]4[C@@]5(C)CCC(=O)C(C)(C)[C@@H]5CC[C@]43C)[C@@H]12
Found: inactive

Lookup: Which outcome was assigned to COc1cc(C2CC(=O)Nc3c2cnn3Cc2ccco2)cc2c1OCCO2 (stereo not given) in this test?
Found: inactive

Lookup: Write down the call the test reported for this compound. Item: CC(=O)C1=C(O)C=C2Oc3c(C(=O)/C=C/c4c(Cl)cccc4Cl)c(O)c(C)c(O)c3[C@]2(C)C1=O
Found: active

Lookup: Assay outcome for COc1ccc(C2c3ccc4ccccc4c3Oc3ncnc(N)c32)cc1 (stereo not given) : what was it?
Found: inactive

Lookup: Dear colleague, could you share the recorded outcome for NC(=S)N/N=C/c1cc(-c2cccc(N)c2)ccn1 when you have a moment?
Found: active
